Ref: the RNAGym collection of RNA variant scans (doi:10.1126/science.aae0568)

# yeast fitness per record follows
B1: tRNA (parent)
chain: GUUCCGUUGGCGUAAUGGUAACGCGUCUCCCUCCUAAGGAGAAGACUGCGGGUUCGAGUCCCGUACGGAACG

Variants of: B1
Experiment: yeast fitness relative to wild type (ratio to wild type); higher = fitter; tRNA-Arg(CCU), competitive growth, 37 C, YPD
Variants at the floor of the assay were thinned out.
In your answer, state the number alone without any accompanying words.

Known results for variants:
[
  {
    "Variant Spec": "U19G C34U",
    "Val": 0.687
  },
  {
    "Variant Spec": "G17C C22U C60G",
    "Val": 0.719
  },
  {
    "Variant Spec": "C55G G68U",
    "Val": 0.522
  },
  {
    "Variant Spec": "G6U C62U",
    "Val": 0.831
  },
  {
    "Variant Spec": "G12A C31U C61G",
    "Val": 0.543
  }
]

Data request, read-out yeast fitness, for G48C G56A 0.905

Data request, read-out yeast fitness, for C22U C34G A36U 0.519

Data request, read-out yeast fitness, for A36G A45C G52C A69C 0.54

Data request, read-out yeast fitness, for C24U C31U C49U A70C 0.643
